Biological target: T1, CD137 expressed on the cell surface of HT1080_4-1BB cells (human, UniProt Q07011 24-255)
T1 construct: whole, on cells; species not restated for the HT1080 transfectant
T1 sequence (Q07011 24-255): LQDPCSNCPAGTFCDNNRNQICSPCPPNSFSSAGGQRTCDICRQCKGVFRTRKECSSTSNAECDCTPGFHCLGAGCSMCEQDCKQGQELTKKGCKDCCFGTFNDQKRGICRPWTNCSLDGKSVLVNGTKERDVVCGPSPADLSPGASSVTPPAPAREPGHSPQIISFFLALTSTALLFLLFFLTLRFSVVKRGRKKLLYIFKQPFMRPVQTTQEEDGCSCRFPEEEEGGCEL
Experiment: HT1080_4-1BB cells, imaging; also: test concentration or dose not given here
READOUT: Cellular binding assay [RFU] (RFU)
Entry rule: numbers only, all in RFU.

- BINDER: "P018.S.13.A.G03 (antibody, V domains shown, V regions on human Ig constant parts; also called AB137_7) VH: QSLEESGGRLVTPGTPLTLTCTASGFSLSSYDVSWVRQAPGKGLEYIGFIGSDGSAHYATWVKGRFTISKTSTTVDLKITSPTTEDTATYFCARDWNDYWAHDLWGPGTLVTVSS VL: AQVLTQTTSPVSAAVGGTVTINCQASQIVTSKSALSWYQQKPGQPPRLLIYKASTLASGVPSRFSGSGSGTQFTLTISDLESDDAATYYCAGGYYNSGDLNPFGGGTEVVVK"
  ENDPOINT_RESULT: 13

Note down Cellular binding assay [RFU] recorded for P018.S.13.A.A05 (antibody, V domains shown, V regions on human Ig constant parts; also called AB137_4) VH: QSLEESGGRLVTPGTPLTLTCTASGFSLSRYDMSWVRQAPGKGLEYIGVISSSGGTNYANWAKGRFTISKTSTTVDLKITSPTTEDTATYFCAREGDYWDFNLWGPGTLVTVSS VL: AQVLTQTPSSVSAAVGGTVTINCQASQSISNLLAWYQQKPGQPPKLLIYGASTLASGVPSRFSGSGSGTEFTLTISDLESDDAATYYCAGGFPGLDTVAAFGGGTEAVVT
0

Note down Cellular binding assay [RFU] recorded for P018.S.13.A.C02 (antibody, V domains shown, V regions on human Ig constant parts; also called AB137_6) VH: QSVEESGGRLVTPGTPLTLTCTVSGFSLSSYAMSWVRQAPGKGLEWIGIISTSGITYYASWAKGRFTISKTSTMVDLKITSPTTEDTATYFCARLNGFDDYVRYFDFWGLGTLVTVSS VL: AIELTQTPSSVSAAVGGTVTINCQASESIASNLAWYQQKPGQPPKLLIYAASYLASGVPSRFKGSGSGTEYTLTISGVQSADAATYYCQSAFYVSSSDNAFGGGTEVVVK
8
